B1: glmS ribozyme (parent)
chain: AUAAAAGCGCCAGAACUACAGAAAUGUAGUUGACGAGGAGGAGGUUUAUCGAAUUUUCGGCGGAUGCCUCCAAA

Variants of: B1
TEST: self-cleavage kobs at 160 uM GlcN6P; higher = faster cleavage; RNA array
SETUP CONDITIONS: with glucosamine-6-phosphate
Fewer inactive variants are shown than the library holds.
REPORTED ENDPOINT: self-cleavage kobs at 160 uM GlcN6P

See these solved cases before continuing.
AUAAAAGCGCCAGAACUACAGAAAUGUAGUUGACAAGGAGGAGGUUUAUCGAAUCUUCGGCGGAUGCCUACAAA [G35A U55C C70A]
< 1e-05 s⁻¹
AUAAAAGCGCCAGAACUACAGAAAUGUAGUUGACGAGGAGGAGGUUUAUCUAAUUUUCGCCGGAUGCCUUCAAA [G51U G60C C70U]
< 1e-05 s⁻¹
AUAAAAGCGCCAGAACUACAGAAAUGUAGUUGACGAGGAGGAAGUUUAUGGAAUUUUCGGCGGAUGCCUCCAAA [G43A C50G]
< 1e-05 s⁻¹
AUAAAAGCGCCAGAACUACAGAAAUGUAGUUCACGAGGAGGAGAUUUUUCGAAUUUUCGGCGGAUGCCUCCAAA [G32C G44A A48U]
< 1e-05 s⁻¹

Lookup: Data request, read-out self-cleavage kobs at 160 uM GlcN6P, for AUAAAAGCGCCAGAAGUACAGAAAUGUAGUUGACGAGGAGGAGGUUUAUCGAAUUUUCGGCGGAUGCCUUCAAA [C16G C70U]
Found: 0.000359 s⁻¹

Lookup: Same question, AUAAAAGCGCCAGAACUACAGAAAUAUAGUUGACGAGGAGGAGGUUUAUCGAAUUUUCGGCGGAUGCCUACAAA [G26A C70A] this time
Found: 0.000106 s⁻¹

Lookup: And what about the variant AUAAAAGCGCCAGUACUACAGAAAUGUAGUUGACGAGGAGUAGGUUUAUCGAAUUUUCGGCGGAUGCCUCCAAA [A14U G41U] ?
Found: 4.48e-05 s⁻¹

Lookup: Similarly, AUAAAAGAGCCAGAACUACAGAAAUGUAGUUGACGAGGAGGAGGUUUCUCGAAUUUUCGGCGGAUGCGUCCAAA [C8A A48C C68G] ?
Found: < 1e-05 s⁻¹

Lookup: Consider next the variant AUAAAAGCGCCAGAACUACAGAAAUGUAGUUGACCAGGUGGAGGUUUAGGGAAUUUUCGGCGGAUGCCUCCAAA [G35C A39U U49G C50G] in the same way.
Found: < 1e-05 s⁻¹

Lookup: Same for AUAAAAACGCCAGAACUACAGAAAUGUAGUUGACGAGGAGGACGUUUAUCGAAUUUUCGGCGGAUGCCUCCAAA [G7A G43C]
Found: < 1e-05 s⁻¹
